- Test system: hCA II (Homo sapiens)
- Construct: made in house
- Protocol notes: CA-catalysed CO2 hydration stopped-flow inhibition assay, hCA II
- Assay type: biochemical
- Run parameters: Table 1, sulfamates 3
Metric name: Ki (nM)

A: CN1CCN(CCNC(=O)Nc2ccc(OS(N)(=O)=O)cc2)CC1
B: NS(=O)(=O)Oc1ccc(NC(=O)NC23CC4CC(CC(C4)C2)C3)cc1 [Compound 3u, 4-[(1-adamantyl)ureido]phenyl sulfamate]
Query block: Sort A and B by Ki descending and give the first. # answer = label of selected item
Result block: B
(B: 467 nM, A: 301 nM)

----------
- Test system: hCA IX (Homo sapiens, UniProt Q16790)
- Construct: made in house
- Protocol notes: CA-catalysed CO2 hydration stopped-flow inhibition assay, hCA IX
- Type: biochemical
- Run parameters: Table 2, selectivity ratio
Metric name: KiCAII/KiCAIX

Worked examples follow.
INSERT INTO results (compound, value_observed) VALUES
  ('NS(=O)(=O)Nc1ccc(NC(=O)NCc2ccco2)cc1 [Compound 7a]', 18.1),
  ('NS(=O)(=O)Nc1ccc(CNC(=O)Nc2ccc(F)cc2)cc1 [Compound 8d]', 23.3);

1: CC(NC(=O)Nc1ccc(NS(N)(=O)=O)cc1)c1cccc2ccccc12 (stereo not drawn) [Compound 7c]
2: NS(=O)(=O)Nc1ccc(NC(=O)Nc2ccc(Cc3ccccc3)cc2)cc1 [Compound 7p]
3: COc1ccc(NC(=O)NCc2ccc(NS(N)(=O)=O)cc2)cc1 [Compound 8c]
4: CC(C)c1ccccc1NC(=O)Nc1ccc(NS(N)(=O)=O)cc1 [Compound 7g]
5: CN(C)c1ccc(NC(=O)NCc2ccc(NS(N)(=O)=O)cc2)cc1 [Compound 8f]
Query block: With regard to KiCAII/KiCAIX, arrange the entries in ascending order, please. Put the labels in the order asked and list them.
Result block: 5, 4, 2, 1, 3
